- System: L1210
- ASSAY_OVERVIEW: Cytotoxicity against murine leukemia L1210 cells
- Type: functional, cell-based, Mus musculus
- RECORDED_CONDITIONS: Mus musculus, L1210; read-out: IC50

COMPOUND | READOUT_RELATION | IC50 [µg/mL]
CC(=O)O[C@H]1C[C@@]2(O)[C@@H](OC(C)=O)[C@@H]3[C@@]4(CO4)[C@@H](OC(C)=O)C[C@H](OC(C)=O)[C@@]3(C)[C@@H](OC(C)=O)[C@H](OC(C)=O)C(=C1C)C2(C)C | > | 10
CC(=O)OC[C@H]1[C@H]2[C@H](O)[C@]3(O)C[C@H](OC(C)=O)C(C)=C([C@@H](OC(C)=O)[C@H](OC(C)=O)[C@]2(C)[C@@H](OC(C)=O)C[C@@H]1OC(C)=O)C3(C)C | = | 4.6
C=C1[C@@H](OC(=O)/C=C/c2ccccc2)C[C@H](OC(C)=O)[C@]2(C)[C@@H]1C[C@]1(C(C)(C)O)C[C@H](OC(C)=O)C(C)=C1[C@@H](OC(=O)c1ccccc1)[C@@H]2OC(C)=O | = | 4.2
CC(=O)O[C@H]1C[C@H]2[C@@H](OC(C)=O)/C=C3\C[C@](C)(C(=O)[C@H](O)C(=C1C)C2(C)C)[C@@H](OC(C)=O)C[C@@H]3OC(=O)C(O)C(c1ccccc1)N(C)C (stereo not given in full) | = | 7.1
CC(=O)O[C@H]1C(=O)[C@@]2(C)[C@H]([C@H](OC(=O)c3ccccc3)[C@]3(O)C[C@H](OC(=O)[C@H](O)C(NC(=O)C4CCC4)c4ccccc4)C(C)=C1C3(C)C)[C@]1(OC(C)=O)CO[C@@H]1C[C@@H]2O (stereo not given in full) | = | 0.25
